# key: entry, value: GI50
Tested on: CAKI-1
test-protocol: NCI tumour cell line growth inhibition, 48 h
Active and inactive are the calls of the source. Rule as the data show it: active = GI50 up to about 1.1 µM and inactive = higher.

Solved cases (3 shown):
molecule: CC(C)(C)OC(=O)NC(Cc1ccc([N+](=O)[O-])cc1)C(=O)NC(CCCCNC(=O)OCc1ccccc1)C(=O)ON1C(=O)CCC1=O (stereo not given)
target-under-test: CAKI-1
value-measured: > 100 µM (inactive)

molecule: CCOC(=O)[C@@H]1ON2O[C@@H](OC3CCCCC3c3ccccc3)C[C@H]3OC(=O)[C@@H]1C32 (stereo not given in full)
target-under-test: CAKI-1
value-measured: 51.9 µM (inactive)

molecule: CSc1nc(SC)c2c(C)cn(COCCOC(=O)c3ccccc3)c2n1
target-under-test: CAKI-1
value-measured: > 100 µM (inactive)

Prompt: Give GI50 for the following molecule: O=C1CCCCc2cccc(O)c21
Response: > 100 µM (inactive)

Prompt: Give GI50 for the following molecule: COC(=O)[C@]1(c2cc3ccccc3[nH]2)CC2CN(CC(=O)N(C)OC)C1C1OC(C)(C)OC21 (stereo not given in full)
Response: 54.2 µM (inactive)

Source: ChEMBL document CHEMBL1201862
